Listed here are compounds together with their documented Dmax.
Target: SMARCA4 (Homo sapiens)
Sequence (P51532 whole entry): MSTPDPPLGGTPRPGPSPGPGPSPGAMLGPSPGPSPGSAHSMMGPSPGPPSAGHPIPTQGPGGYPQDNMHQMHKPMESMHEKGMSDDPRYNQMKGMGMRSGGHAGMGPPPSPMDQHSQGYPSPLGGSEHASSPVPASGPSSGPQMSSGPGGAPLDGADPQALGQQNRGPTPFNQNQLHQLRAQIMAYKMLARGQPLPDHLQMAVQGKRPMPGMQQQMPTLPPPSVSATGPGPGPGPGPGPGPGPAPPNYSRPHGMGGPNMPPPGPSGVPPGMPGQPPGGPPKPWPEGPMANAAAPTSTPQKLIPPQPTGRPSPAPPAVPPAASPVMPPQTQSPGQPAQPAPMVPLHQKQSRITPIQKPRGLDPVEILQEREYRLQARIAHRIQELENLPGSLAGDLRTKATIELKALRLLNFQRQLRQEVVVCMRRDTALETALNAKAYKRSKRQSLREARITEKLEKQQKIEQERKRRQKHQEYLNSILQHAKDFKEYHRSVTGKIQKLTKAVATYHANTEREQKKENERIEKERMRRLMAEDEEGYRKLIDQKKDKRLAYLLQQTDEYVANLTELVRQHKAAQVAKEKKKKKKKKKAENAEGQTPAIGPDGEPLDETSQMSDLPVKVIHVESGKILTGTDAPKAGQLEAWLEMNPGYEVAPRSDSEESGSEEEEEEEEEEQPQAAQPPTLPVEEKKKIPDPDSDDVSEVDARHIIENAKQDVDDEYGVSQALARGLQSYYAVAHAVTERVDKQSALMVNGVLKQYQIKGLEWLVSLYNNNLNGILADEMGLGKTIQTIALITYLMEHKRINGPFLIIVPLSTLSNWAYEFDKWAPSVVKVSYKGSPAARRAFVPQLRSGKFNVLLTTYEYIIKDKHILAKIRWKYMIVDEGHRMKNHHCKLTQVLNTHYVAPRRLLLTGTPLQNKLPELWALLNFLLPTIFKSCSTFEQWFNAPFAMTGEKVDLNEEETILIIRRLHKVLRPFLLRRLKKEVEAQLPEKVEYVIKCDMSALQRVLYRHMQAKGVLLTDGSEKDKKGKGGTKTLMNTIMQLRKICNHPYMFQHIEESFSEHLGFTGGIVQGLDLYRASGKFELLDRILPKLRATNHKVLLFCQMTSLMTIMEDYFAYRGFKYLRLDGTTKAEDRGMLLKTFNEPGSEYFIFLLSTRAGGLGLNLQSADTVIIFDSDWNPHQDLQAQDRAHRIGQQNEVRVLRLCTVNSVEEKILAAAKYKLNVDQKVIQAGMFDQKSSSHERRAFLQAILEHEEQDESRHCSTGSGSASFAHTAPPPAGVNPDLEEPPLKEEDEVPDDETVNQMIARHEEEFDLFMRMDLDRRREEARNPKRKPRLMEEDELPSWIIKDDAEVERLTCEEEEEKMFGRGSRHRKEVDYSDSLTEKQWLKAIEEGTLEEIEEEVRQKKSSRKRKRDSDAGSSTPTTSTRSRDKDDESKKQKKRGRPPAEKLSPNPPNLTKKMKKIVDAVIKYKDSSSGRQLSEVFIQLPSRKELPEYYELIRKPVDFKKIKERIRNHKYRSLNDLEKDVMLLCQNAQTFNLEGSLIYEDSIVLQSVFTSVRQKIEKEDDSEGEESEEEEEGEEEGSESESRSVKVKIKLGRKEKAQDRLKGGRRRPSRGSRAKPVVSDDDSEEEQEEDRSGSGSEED
Assay: HiBiT assay for protein degradation, Hela SMARCA4-HiBiT cells (A series)
Type: cell-based
Parameters: fuse HiBiT to the carboxy terminus of SMARCA2 (Promega CS302365) or SMARCA4 (Promega CS3023225); host or cells: HeLa (CRISPR/Cas9 HiBiT knock-in)
Details: HeLa, read-out: SMARC A4 Hela HiBit Dmax(%)
outcome-measure: Dmax

mol_smiles=Cc1ncsc1-c1ccc([C@H](C)NC(=O)[C@@H]2C[C@@H](O)CN2C(=O)[C@@H](n2cc([C@H]3CC[C@H](CN4CCC(c5ccc6c(c5)-n5c(nc(=O)c7c(Br)cccc75)C65CCCCC5)CC4)CC3)nn2)C(C)(C)C)cc1 tested_target="SMARCA4 (Homo sapiens)" outcome_measure=Dmax observed_result="70 to 90%"
mol_smiles=Cc1ncsc1-c1ccc([C@H](C)NC(=O)[C@@H]2C[C@@H](O)CN2C(=O)[C@@H](NC(=O)CCCCCN2CCC(c3ccc4c(c3)C3(CCCCC3)c3nc(=O)c5c(Cl)cccc5n3-4)CC2)C(C)(C)C)cc1 tested_target="SMARCA4 (Homo sapiens)" outcome_measure=Dmax observed_result="50 to 69%"
mol_smiles=Cc1ncsc1-c1ccc([C@H](C)NC(=O)[C@@H]2C[C@@H](O)CN2C(=O)[C@@H](NC(=O)[C@H]2CC[C@H](CN3CCC(c4ccc5c(c4)C4(CCCCC4)c4nc(=O)c6c(Br)cccc6n4-5)CC3)CC2)C(C)(C)C)cc1 tested_target="SMARCA4 (Homo sapiens)" outcome_measure=Dmax observed_result="50 to 69%"
mol_smiles=Cc1ncsc1-c1ccc([C@H](CCCCCN2CCC(c3ccc4c(c3)C3(CCCCC3)c3nc(=O)c5c(Br)cccc5n3-4)CC2)NC(=O)[C@@H]2C[C@@H](O)CN2C(=O)[C@@H](NC(=O)C2(F)CC2)C(C)(C)C)cc1 tested_target="SMARCA4 (Homo sapiens)" outcome_measure=Dmax observed_result="> 90%"
